We begin with a simple list: items and their reported EC50.
Test system: RVFV MP-12
Assay: microbe, parasite or virus in culture
Format: cell-based, Rift Valley fever virus
Conditions: read-out: Estimated EC50

Examples with their reported EC50 follow.
Molecule: Cc1ccc(O)c(=O)c(O)c1
Test Target: RVFV MP-12
Measure Name: EC50
Endpoint Result: 8 µM

Molecule: CCOC(=O)c1sc(NC(=O)CSc2nnc(Cc3ccccc3)o2)c(C#N)c1C
Test Target: RVFV MP-12
Measure Name: EC50
Endpoint Result: > 120 µM

Molecule: CC1=CC(O)N(O)C(O)=C1C(C)=Nc1ccccc1N (centres unmarked)
Test Target: RVFV MP-12
Measure Name: EC50
Endpoint Result: 14 µM

Molecule: O=c1c(O)cccc(S(=O)(=O)c2cccc3ccccc23)c1O
Test Target: RVFV MP-12
Measure Name: EC50
Endpoint Result: 8 µM

Noted for `COC(=O)c1c(C)cc(O)c(=O)c(O)c1Br` : its EC50 reads 3 µM
